biological target: human recombinant Btk (Homo sapiens (Human)); assay: Human Recombinant Btk Enzyme Assay
Sequence (Q06187 whole entry): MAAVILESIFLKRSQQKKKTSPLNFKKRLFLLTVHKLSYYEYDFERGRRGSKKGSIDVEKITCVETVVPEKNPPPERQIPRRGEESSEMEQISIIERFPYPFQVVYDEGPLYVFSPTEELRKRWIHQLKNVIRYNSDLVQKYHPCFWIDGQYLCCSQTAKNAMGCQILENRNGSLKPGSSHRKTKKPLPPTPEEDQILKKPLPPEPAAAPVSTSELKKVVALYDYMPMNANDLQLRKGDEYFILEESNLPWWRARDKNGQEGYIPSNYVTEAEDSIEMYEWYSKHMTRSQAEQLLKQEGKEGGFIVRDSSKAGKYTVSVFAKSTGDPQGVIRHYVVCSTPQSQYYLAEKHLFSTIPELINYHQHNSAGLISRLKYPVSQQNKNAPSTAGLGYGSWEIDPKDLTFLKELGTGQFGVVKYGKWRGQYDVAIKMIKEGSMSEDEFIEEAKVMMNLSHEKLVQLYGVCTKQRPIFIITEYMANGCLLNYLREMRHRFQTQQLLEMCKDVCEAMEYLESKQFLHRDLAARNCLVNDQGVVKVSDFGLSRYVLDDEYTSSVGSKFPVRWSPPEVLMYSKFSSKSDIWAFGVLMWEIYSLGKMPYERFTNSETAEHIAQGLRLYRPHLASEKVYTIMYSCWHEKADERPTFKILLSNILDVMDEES
Please respond with reported IC50 for every item in the list.
Give a bare numeral; the unit nM is implied.

Quote IC50 reported for Cc1c(-c2c(Cl)cc(C(N)=O)c3[nH]c4cc(C(C)(C)O)ccc4c23)cccc1-n1c(=O)[nH]c2c(F)cc(F)cc2c1=O (racemic) please.
0.83

Quote IC50 reported for Cc1c(-c2c(Cl)cc(C(N)=O)c3[nH]c4cc(C(C)(C)O)ccc4c23)cccc1-n1c(=O)c2ccc(F)cc2n(C)c1=O please.
0.62

Quote IC50 reported for Cc1c(-c2c(Cl)cc(C(N)=O)c3[nH]c4cc(C(C)(C)O)ccc4c23)cccc1-n1c(=O)c2cccc(C)c2n(C)c1=O please.
1.3

Quote IC50 reported for Cc1c(-c2c(Cl)cc(C(N)=O)c3[nH]c4cc(C(C)(C)O)ccc4c23)cccc1-n1c(=O)ccn(-c2ccc(F)cc2)c1=O [Example 24] please.
0.33

Quote IC50 reported for Cc1cc(C(N)=O)c2[nH]c3cc(C(C)(C)O)ccc3c2c1-c1cccc(-n2c(=O)c3cccc(F)c3n(C)c2=O)c1C (atropisomer, axis not shown) please.
0.66

Quote IC50 reported for Cn1c(=O)n(-c2cccc(-c3c(Cl)cc(C(N)=O)c4[nH]c5cc(C(C)(C)O)ccc5c34)c2Cl)c(=O)c2ccccc21 [Example 42] please.
2
